Origin of the recorded values: patent US5192758A

# Tested on: rat
# experimental-details: Intracisternal assay: convulsant response (seizure potential)
# Type: in vivo
# recorded-conditions: injection of 20 micro-liters into the intracisternal cavity, amount giving a 50% seizure rate
# Text: Central to the instant invention was the safety benefit realized by the incorporation of the cyano group to the imidazoliummethylbiphenyl moiety of the carbapenem nucleus, as shown in Table II below. […] This difference in activity was statistically significant and allows one to anticipate a much greater CNS safety profile for the compounds depicted. The figure reported in Table II was the amount of active compound giving a 50% seizure rate in the rat, serving as a model for humans. […]
parameter-measured: CONVULSANT RESPONSE MCG/HEAD-ED50

Recorded CONVULSANT RESPONSE MCG/HEAD-ED50 for CC(O)C1C(=O)N2C(C(=O)[O-])=C(c3cccc(-c4ccc(C[n+]5ccn(CCO)c5)cc4)c3)CC12 (centres unmarked) [R^c = CH2 CH2 OH, R' = H] with rat, please?
35 MCG/HEAD

Recorded CONVULSANT RESPONSE MCG/HEAD-ED50 for CC(O)C1C(=O)N2C(C(=O)[O-])=C(c3cc(C#N)cc(-c4ccc(C[n+]5ccn(C)c5)cc4)c3)CC12 (centres unmarked) [R^c = CH3, R' = CN] with rat, please?
100 MCG/HEAD

Recorded CONVULSANT RESPONSE MCG/HEAD-ED50 for CC(O)C1C(=O)N2C(C(=O)[O-])=C(c3cccc(-c4ccc(C[n+]5ccn(C)c5)cc4)c3)CC12 (centres unmarked) [R^c = CH3, R' = H] with rat, please?
35 MCG/HEAD

Recorded CONVULSANT RESPONSE MCG/HEAD-ED50 for CC(O)C1C(=O)N2C(C(=O)[O-])=C(c3cc(Br)cc(-c4ccc(C[n+]5ccn(C)c5)cc4)c3)CC12 (centres unmarked) [R^c = CH3, R' = Br] with rat, please?
< 12.5 MCG/HEAD

Recorded CONVULSANT RESPONSE MCG/HEAD-ED50 for CC(O)C1C(=O)N2C(C(=O)[O-])=C(c3cc(C#N)cc(-c4ccc(C[n+]5ccn(CCO)c5)cc4)c3)CC12 (centres unmarked) [R^c = CH2 CH2 OH, R' = CN] with rat, please?
100 MCG/HEAD
